Cited source: paper PMC9352680

# pKd listing for each entry below
- system_name: T1, PUF4 RNA-binding domain (Saccharomyces cerevisiae, UniProt P25339 537-888)
- T1 sequence: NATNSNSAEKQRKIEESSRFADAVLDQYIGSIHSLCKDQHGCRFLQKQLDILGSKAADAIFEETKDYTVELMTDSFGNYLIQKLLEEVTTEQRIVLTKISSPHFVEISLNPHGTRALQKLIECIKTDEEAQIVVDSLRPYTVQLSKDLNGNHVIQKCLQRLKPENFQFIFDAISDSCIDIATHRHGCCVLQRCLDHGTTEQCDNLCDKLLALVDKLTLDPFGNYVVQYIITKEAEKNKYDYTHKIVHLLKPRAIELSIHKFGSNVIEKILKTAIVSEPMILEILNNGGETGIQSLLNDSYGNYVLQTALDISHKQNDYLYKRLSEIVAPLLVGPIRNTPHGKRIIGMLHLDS
- protocol_notes: Mg; RNA-MaP; 20 mM Na-HEPES pH 7.4, 30 mM KOAc, 0.75 mM MgCl2, 0.1% Tween-20, 5% glycerol, 0.1 mg/mL BSA, 2 mM DTT; 25 C; 0.0125-409.6 nM protein
- condition_summary: tags: N-His6-TEV cleaved; C-SNAP kept, Cy3B-labelled; label: tethered on chip by stalled RNA polymerase
pKd: −log10 of the molar value.
property: pKd

1) UCUCUUUGUAUCCAGCUCUCUU (ssRNA) [Ic_S1_P5E.1_K5.1_C5.1_H5.1_A5.1_[T6C]_[A7C]_F5.1_[T8A]_[T9G]_[A10C]_T5.1]	5.89
2) Ie_S2_P3E.2_K3.1_C3.2_H3.1_A3.1_F3.1_[+8C]_T3.2 (ssRNA) RNA: UUUGAUUAAUAUGAUAUCGUUCUUUCUCUUGUAUAUACUAUUCUUUCUCGAUAUCAUAUUAAUCUUU	8.53
3) Id_iii_S4_P3E.9_K3.5_C3.3_[C-2T]_H3.1_A3.2_F3.2_T3.2 (ssRNA) RNA: UUUGACAACUGAUCGUUCUUUCUUUUUGUAAAAAUAUUCUUUCUCGAUCAGUUGUCUUU	7.46
4) Id_ii_S4_P4E.3_K4.2_C4.2_[C-2G]_H4.2_A4.1_F4.1_T4.2_[G10C] (ssRNA) RNA: UUUGACAACUGAUCGUUCUUUCUGUUAUAUAUUACUUUCUUUCUCGAUCAGUUGUCUUU	7.42
5) Ic_S4_P4E.1_K4.1_C4.1_H4.1_A4.1_[T5G]_[A6C]_[T7C]_F4.1_[A9C]_T4.1 (ssRNA) RNA: UUUGACAACUGAUCGUUCUUUCUUGUAGCCUCUUCUUUCUCGAUCAGUUGUCUUU	6.13
6) Ic_S2_P3E.1_K3.1_C3.1_H3.1_A3.1_[T5C]_[A6G]_F3.1_[A8T]_T3.1 (ssRNA) RNA: UUUGAUUAAUAUGAUAUCGUUCUUUCUUGUACGUUUUCUUUCUCGAUAUCAUAUUAAUCUUU	7.84
7) ACAAACCCUAUAUAUAUUACAAAC (ssRNA) [Id_ii_S3_P3E.3_K3.2_C3.2_[T-1C]_H3.2_A3.1_F3.1_T3.2_[A10T]]	7.48
8) Ib_S2_P4E.1_K4.1_C4.1_H4.1_[G2A]_A4.1_F4.1_[A9G]_T4.1 (ssRNA) RNA: UUUGAUUAAUAUGAUAUCGUUCUUUCUUAUAUAUUGUUCUUUCUCGAUAUCAUAUUAAUCUUU	6.69
9) Ie_S2_P5E.1_K5.1_C5.1_H5.1_A5.1_F5.1_[+9TTC]_T5.1 (ssRNA) RNA: UUUGAUUAAUAUGAUAUCGUUCUUUCUUGUAUUAUUUUCAUUCUUUCUCGAUAUCAUAUUAAUCUUU	7.85
10) UCUCUUUCUAUAUAUUACUUCUCUU (ssRNA) [Id_ii_S1_P4E.3_K4.2_C4.2_[C-2T]_[T-1C]_H4.2_A4.1_F4.1_T4.2_[G10C]]	7.62
11) UCUCUUUGUAUACCCGUCUCUU (ssRNA) [Ic_S1_P5E.1_K5.1_C5.1_H5.1_A5.1_[T6A]_[A7C]_F5.1_[T8C]_[T9C]_[A10G]_T5.1]	6.17
12) Ic_S4_P4E.1_K4.1_C4.1_H4.1_A4.1_[T7A]_F4.1_[A9T]_T4.1 (ssRNA) RNA: UUUGACAACUGAUCGUUCUUUCUUGUAUAAUUUUCUUUCUCGAUCAGUUGUCUUU	7.99
13) UCUCUUCUGUAUAUAUAUAUCUCUU (ssRNA) [Id_i_S1_P3E.6_K3.2_C3.3_[T-3C]_[C-2T]_[T-1G]_H3.2_A3.1_F3.1_T3.2]	8.05
14) Id_ii_S2_P4E.2_K4.1_C4.2_[T-1A]_H4.1_A4.1_F4.1_T4.2_[G10C]_[T11C] (ssRNA) RNA: UUUGAUUAAUAUGAUAUCGUUCUUUCUCAUGUAUAUUACCUUCUUUCUCGAUAUCAUAUUAAUCUUU	9.13
15) Id_ii_S4_P3E.3_K3.2_C3.2_[C-2T]_H3.2_A3.1_F3.1_T3.2_[T9C] (ssRNA) RNA: UUUGACAACUGAUCGUUCUUUCUUUUAUAUAUACAUUCUUUCUCGAUCAGUUGUCUUU	6.66
16) UCUCUUUGUAGCCCAUUCUCUU (ssRNA) [Ic_S1_P5E.1_K5.1_C5.1_H5.1_A5.1_[T5G]_[T6C]_[A7C]_F5.1_[T8C]_[T9A]_[A10T]_T5.1]	5.82
17) UCUCUUUUUAUAUUAUUACAUCUCUU (ssRNA) [Id_ii_S1_P5E.3_K5.2_C5.2_[C-2T]_H5.2_A5.1_F5.1_T5.2_[T11C]]	6.30
